Test system: NS5A chimeric genotype 2a JFH-1 replicon with genotype 2b MD2b-1 strain NS5A gene (M31 present)
Assay: Replicon assay, genotype 2b NS5A chimera
Type: cell-based, HCV
Conditions: Hepatitis C virus, read-out: 2b (s) (nM), genotype 2b MD2b-1 NS5A chimeric replicon (M31), stably replicating replicon cells (s)
Each item that follows carries a reported EC50.

# molecular string, units symbol, EC50
data = [
    ("CC[C@H]1CC[C@@H](c2ncc(-c3ccc4c(c3)COc3cc5c(ccc6nc([C@@H]7CC[C@H](CC)N7C(=O)[C@@H](NC(=O)OC)C7CCOCC7)[nH]c65)cc3-4)[nH]2)N1C(=O)[C@@H](NC(=O)OC)C(C)C", "nM", 0.25),
    ("CC[C@H]1CC[C@@H](c2ncc(-c3ccc4c(c3)COc3cc5c(ccc6nc([C@@H]7CC[C@H](C)N7C(=O)[C@@H](NC(=O)OC)[C@@H](C)OC)[nH]c65)cc3-4)[nH]2)N1C(=O)[C@@H](NC(=O)OC)[C@@H](C)OC", "nM", 0.082),
    ("COC(=O)N[C@H](C(=O)N1[C@@H](C)CC[C@H]1c1ncc(-c2ccc3c(c2)COc2cc4c(ccc5nc([C@@H]6C[C@H](COC(F)F)CN6C(=O)[C@@H](NC(=O)OC)[C@@H](C)OC)[nH]c54)cc2-3)[nH]1)C(C)C", "nM", 0.164),
    ("CC[C@H]1CC[C@@H](c2ncc(-c3ccc4c(c3)COc3cc5c(ccc6nc([C@@H]7CC[C@H](C)N7C(=O)[C@@H](NC(=O)OC)C(C)C)[nH]c65)cc3-4)[nH]2)N1C(=O)[C@@H](NC(=O)OC)C1CCOCC1", "nM", 0.233),
]

====

System: stable HCV 2a JFH-1 Rluc replicon cells (L31 present in NS5A)
Test: Renilla luciferase HCV replicon reporter assay, genotype 2a JFH-1
Assay type: cell-based
Details: Hepatitis C virus, read-out: 2a JFH (nM), genotype 2a JFH-1 replicon (L31 in NS5A), stable cells

# molecule, EC50, nM
records = [
    ("COC(=O)N[C@H](C(=O)N1[C@@H](C)CC[C@H]1c1ncc(-c2ccc3c(c2)COc2cc4c(ccc5nc([C@@H]6CC[C@H](C)N6C(=O)[C@H](NC(=O)OC)c6ccccc6)[nH]c54)cc2-3)[nH]1)C(C)C [FB]", 0.013),
    ("COC(=O)N[C@H](C(=O)N1C[C@@H](C)C[C@H]1c1nc2ccc3cc4c(cc3c2[nH]1)OCc1cc(-c2cnc([C@@H]3CC[C@H](C)N3C(=O)[C@@H](NC(=O)OC)[C@@H](C)OC)[nH]2)ccc1-4)[C@@H](C)OC [DY]", 0.028),
    ("CC[C@H]1CC[C@@H](c2ncc(-c3ccc4c(c3)COc3cc5c(ccc6nc([C@@H]7CC[C@H](CC)N7C(=O)[C@@H](NC(=O)OC)C7CCOCC7)[nH]c65)cc3-4)[nH]2)N1C(=O)[C@@H](NC(=O)OC)C1CCOCC1 [IE]", 0.035),
    ("COC(=O)N[C@H](C(=O)N1C[C@@H](C)C[C@H]1c1nc2ccc3cc4c(cc3c2[nH]1)OCc1cc(-c2cnc([C@@H]3CC[C@H](C)N3C(=O)[C@@H](NC(=O)OC)C3CCOCC3)[nH]2)ccc1-4)C(C)C [FP]", 0.016),
]

# credit: patent US10800789B2
